assay: protein stability index of a GFP-peptide fusion (yeast GPS) (PSI 1-4); higher = more stable; sorted into four equal gates, so the index is relative within each strain; settings: ubr1∆
Attribute: protein stability index
reported_property: protein stability index

construct_sequence	reported_property	measured_number
WPIVQKTYEPVLNEDDL [RPN5]	protein stability index	2.27
LESFQAVYNKLTGKQIV [RPS7A]	protein stability index	1.53
GATKIVREHYLRSDIPC [DIS3]	protein stability index	2.43
DSSSQCIVDFTNPKLKS [YMR129W/POM152]	protein stability index	1.96
MDIMEDFLRYINIKYLR [SNF2]	protein stability index	1.3
GTIKKIEQFAMRRNSKI [POP5]	protein stability index	2.69
LEIAKDFQPTELFDILS [IRR1]	protein stability index	3.08
IHQYLFQEGVVVAKKDF [RPS10A]	protein stability index	2.04
LYYRPHINKKSQLDLFL [GRR1]	protein stability index	1.85
EILVEESGLRPVSLLNS [PCI8]	protein stability index	2.54
WKQDLTKEEAIKLASDA [PUP1]	protein stability index	3.01
DRQIINEKMQLLKDIFA [SIR4]	protein stability index	1.92
LIIVTRKNYMHVKNFGF [YML031W/NDC1]	protein stability index	1.87
NALHTERLHELKKLQSD [SMC1]	protein stability index	3.48

* * *

assay: protein stability index of a GFP-peptide fusion (yeast GPS) (PSI 1-4); higher = more stable; sorted into four equal gates, so the index is relative within each strain; details: ubr1∆

construct_sequence	protein stability index
REQHIDTICQSIQEQIQ [SNF5]	3.3
DIEAGDDDDNNESSSNT [DIS3]	2.79
PKYAKQKDKSDTYKRFK [ISW2]	3.23
DDFEEDEDEEDDDDYNA [RPC31]	3.46
QFAPAFLNTPNNNINEN [SSN2]	2.89
EVEVSTRDLFDLEKDRA [RPO31]	3.23
QLDSYLVNGFSQSQQKL [MED2]	2.72
KKEELVEIAYHKCDELI [RPO31]	3.14
IKNVQDLLILTRSIKEK [SRB6]	1.76
FQDTLYKKIPLLGPTLE [QCR10]	2.95
LVSLFEDTNLAAIHAKR [HHT1]	2.81
YSKIKHLGLDDPQDVFN [SIR2]	3.24
IMDELLSSIAERVRNFA [DIB1]	2.17
SNLKISLVKYPELLDSL [SWI1]	2.96
VVWYQRLTMGNVFTPEI [RRI2]	2.45
YINVSRGTDIDRINYTE [SRB5]	3.02
SMNATMRNFSKQNQDSK [YDL088C/ASM4]	2.84
ELLANKCPLLVEVDITL [GRR1]	1.47
EDEDDGESEKSSDVDMD [RPC53]	3.32
SYSPTSPSYSPTSPSYS [RPO21]	2.76
IFIATQLEKKIRFVCLS [BRR2]	1.49
LEKKGFSEVYEYNRLKV [LIN1]	3.22
LLSKKHGQLKLSIQYMI [RPN5]	1.65
LQIESVTKETVHPRKSY [PRP8]	3.11
QRDLGLYVVGLFDTYHA [RRP6]	2.57
FAVIYLCDIDEVSDFDE [DIB1]	1.64
ICQIISSTITGDVVLAA [RPL5]	3.06
GKILLKGDNITLITSAD [SME1]	3.2
TQTYMQMIELNRQICLV [GRR1]	1.25
FLERKCVHMVYEYAEHD [SSN3]	1.83
YKFLDQNSDASTLEPTL [YIL149C/MLP2]	2.67
SKNMSKSPSLTAQKYPI [YMR153W/NUP53]	2.51
DTCAVSFDAVSDSIELL [YJR042W/NUP85]	2.65
KDIFRYMQRTVEEAHDF [RPB2]	1.3
VTVHSLTGEATANALPL [RPL4A]	2.86
DEIKAQRKEIKDRISSC [SMC4]	3.07
VIFNDNVTETYSVYLIH [SIR3]	2.28
IFFNIPLVAHLGLYVGV [YJL039C/NUP192]	1.33
YTANTSAQSIASAKSVR [YAR002W/NUP60]	2.71
RNDSTVNDSVISAPSME [BRN1]	2.96
SIRRQDYINELSNSNRF [REC8]	3.2
EELVSLAVFLFDIYNRD [YJL039C/NUP192]	1.39
PGNGKHASENISLSFSR [SIR4]	3.05
IKTVVLVPQLGHVGSVQ [PRP8]	2.35
PHTPVTRKGYIPSSKYA [YLR018C/POM34]	3.07
NATANATANATANATAE [SNF11]	3.33
YIKYNILLTSISRERDL [SRP68]	1.91
FGAKPEEQKSSDTSKPA [YJL041W/NSP1]	3.11
HFFKWIEFIVYHQLLSD [SRB8]	1.2
VDLWSVGCIFAELIGLQ [SSN3]	3.17
PSSQSQNDTPMFKLGNF [YLR018C/POM34]	2.6
IRDSGDRIDLRYSKRAG [RPO21]	3.27
KLMDEDSVATVIEVIET [YJR042W/NUP85]	2.98
VILRKISMLVTQLQRGG [CSI1]	1.3
ATKDNELNVKHVKQCQE [SMC2]	3.32
DYSRKQLGYGKFLILNE [NUT1]	3.18
HGMSVDPRHIQLLGDVM [RPO31]	2.98
SQEQGMGMDLYKTSKAA [FAS1]	3.3
SANVELFKRDCNQMENL [YCS4]	3.35
ADKRGVLTGGYLDQHKR [SMC3]	2.94
